- Test system: U251 CNS
- ASSAY_EXPLANATION: NCI tumour cell line growth inhibition, 48 h
For each entry below, report its TGI value.
Answer format: numeric, µM implied, no suffix.

Task: What measured TGI is associated with CC/C(=N\Nc1nc2ccccc2n1C)c1ccccn1 on U251 CNS?
Result: 11

Task: // query: COC1/C=C/C(C)C(OC)CC(O)/C=C/C(C)C(C(C)C(OC)C(C)CCC(=O)C(C)C(C/C=C/N(C)C=O)OC)OC(=O)/C=C/C=C(\C)CC(OC)C(OC)C2=CC(=O)O[C@@H](C(C)C(OC)C1)[C@H]2O (stereo not given in full)
Result: 0.12

Task: Check CCc1cccc(C(C)CC)c1N=C(NC(=O)c1ccccc1C(=O)NC(=Nc1c(CC)cccc1C(C)CC)SC)SC (stereo not given) too.
Result: 79.5

Task: Repeat with COc1cc(CNC(=O)/C=C/C=C/c2ccc3c(c2)OCO3)ccc1OCc1cn(-c2ccc(Cl)c(Cl)c2)nn1
Result: 3.22

Task: And then CCOC(=O)c1ccc(N=C2SC(=S)N(c3ccc(F)cc3)C2=Nc2ccc(C(=O)OCC)cc2)cc1 , what is it?
Result: 44.2

Task: Follow-up item: Nc1nc(N)c2cc(CNc3ccc(Cl)c(Cl)c3)ccc2n1
Result: 1.66

Task: Please answer likewise for C=C1C(=O)OC2/C=C(\C)CC/C=C(/C)CC(OC(=O)/C(=C/CO)CO)C12 (stereo not given)
Result: 47

Task: Also need CN(C)CC(C(=O)c1ccccc1)c1ccccc1 (stereo not given) , thanks.
Result: 3.13

Task: Note, next up: COc1cc2c(cc1C)NC(=O)/C2=C/c1c(Cl)[nH]c2cc(C)c(OC)cc12
Result: 15.3

Task: Would you kindly repeat that for N#CS/C(C(Cl)=C(Cl)Cl)=C(/Cl)[N+](=O)[O-] ?
Result: 30
